- Test system: BRD2-BD1 (74–194) (Homo sapiens, UniProt P25440)
- Sequence (P25440 74-194): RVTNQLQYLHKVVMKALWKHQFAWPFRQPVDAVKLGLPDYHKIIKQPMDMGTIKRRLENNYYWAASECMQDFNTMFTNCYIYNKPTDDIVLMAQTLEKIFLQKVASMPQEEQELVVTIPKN
- Method: Isothermal titration calorimetry
- Type: binding
- Experimental conditions: 15 °C, no DMSO in buffer
# if measured ITC −TΔS, BRD2 BD1 < -2 kcal/mol: y  # else: n

Compound	Class label
CC(=O)N1c2ccc(-c3ccc[nH]3)cc2[C@H](NC(=O)OC(C)C)C[C@@H]1C [Compound 11]	y
CC(=O)N1c2ccc(-c3ccoc3)cc2[C@H](NC(=O)OC(C)C)C[C@@H]1C [Compound 12]	n
CC(=O)N1c2ccc(-c3ccco3)cc2[C@H](NC(=O)OC(C)C)C[C@@H]1C [Compound 9]	n
CC(=O)N1c2ccc(-c3cccs3)cc2[C@H](NC(=O)OC(C)C)C[C@@H]1C [Compound 10]	n
Cc1sc2c(c1C)C(c1ccc(Cl)cc1)=N[C@@H](CC(=O)OC(C)(C)C)c1nnc(C)n1-2 [Compound 1, (+)-JQ1, reference compound]	y
CC(=O)N1c2ccc(-c3ccsc3)cc2[C@H](NC(=O)OC(C)C)C[C@@H]1C [Compound 13]	n

* * *

- Test system: BRD2-BD2 (348–455) (Homo sapiens)
- Method: Isothermal titration calorimetry
- Type: binding
- Experimental conditions: 15 °C, no DMSO in buffer
Mark y only when ITC −TΔS, BRD2 BD2 stays strictly below -3 kcal/mol. Values equal to the cut-off are n.

Compound	Class label
CC(=O)N1c2ccc(-c3ccsc3)cc2[C@H](NC(=O)OC(C)C)C[C@@H]1C	y
CC(=O)N1c2ccc(-c3cc[nH]c3)cc2[C@H](NC(=O)OC(C)C)C[C@@H]1C	y
Cc1sc2c(c1C)C(c1ccc(Cl)cc1)=N[C@@H](CC(=O)OC(C)(C)C)c1nnc(C)n1-2 [Compound 1, (+)-JQ1, reference compound]	y
CC(=O)N1c2ccc(-c3ccoc3)cc2[C@H](NC(=O)OC(C)C)C[C@@H]1C	n

* * *

ITC ΔH, BRD2 BD1 listing for selected compounds.
- Test system: BRD2-BD1 (74–194) (Homo sapiens, UniProt P25440)
- Method: Isothermal titration calorimetry
- Assay type: binding
- Experimental conditions: 15 °C, no DMSO in buffer

Compound	Unit label	ITC ΔH, BRD2 BD1
Cc1sc2c(c1C)C(c1ccc(Cl)cc1)=N[C@@H](CC(=O)OC(C)(C)C)c1nnc(C)n1-2 [Compound 1, (+)-JQ1, reference compound]	kcal/mol	-4.9
CC(=O)N1c2ccc(-c3ccoc3)cc2[C@H](NC(=O)OC(C)C)C[C@@H]1C [Compound 12]	kcal/mol	-9.9
CC(=O)N1c2ccc(-c3cc[nH]c3)cc2[C@H](NC(=O)OC(C)C)C[C@@H]1C [Compound 14]	kcal/mol	-7.33
CC(=O)N1c2ccc(-c3ccc[nH]3)cc2[C@H](NC(=O)OC(C)C)C[C@@H]1C [Compound 11]	kcal/mol	-6.9
CC(=O)N1c2ccc(-c3ccco3)cc2[C@H](NC(=O)OC(C)C)C[C@@H]1C [Compound 9]	kcal/mol	-7.27
CC(=O)N1c2ccc(-c3ccsc3)cc2[C@H](NC(=O)OC(C)C)C[C@@H]1C [Compound 13]	kcal/mol	-7.69
CC(=O)N1c2ccc(-c3cccs3)cc2[C@H](NC(=O)OC(C)C)C[C@@H]1C [Compound 10]	kcal/mol	-8.27

* * *

Entries and their measured ITC ΔH, BRD2 BD2 follow.
- Test system: BRD2-BD2 (348–455) (Homo sapiens, UniProt P25440)
- Sequence (P25440 348-455): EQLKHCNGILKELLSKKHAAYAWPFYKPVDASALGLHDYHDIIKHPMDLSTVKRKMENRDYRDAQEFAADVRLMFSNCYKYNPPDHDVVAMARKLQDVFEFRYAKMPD
- Method: Isothermal titration calorimetry
- Format: binding
- Experimental conditions: 15 °C, no DMSO in buffer

Compound	ITC ΔH, BRD2 BD2 / kcal/mol
Cc1sc2c(c1C)C(c1ccc(Cl)cc1)=N[C@@H](CC(=O)OC(C)(C)C)c1nnc(C)n1-2 [Compound 1, (+)-JQ1, reference compound]	-1.47
CC(=O)N1c2ccc(-c3ccsc3)cc2[C@H](NC(=O)OC(C)C)C[C@@H]1C [Compound 13]	-6.92
CC(=O)N1c2ccc(-c3cccs3)cc2[C@H](NC(=O)OC(C)C)C[C@@H]1C [Compound 10]	-7.18
CC(=O)N1c2ccc(-c3ccc[nH]3)cc2[C@H](NC(=O)OC(C)C)C[C@@H]1C [Compound 11]	-6.89
CC(=O)N1c2ccc(-c3cc[nH]c3)cc2[C@H](NC(=O)OC(C)C)C[C@@H]1C [Compound 14]	-7.01
CC(=O)N1c2ccc(-c3ccoc3)cc2[C@H](NC(=O)OC(C)C)C[C@@H]1C [Compound 12]	-6.31
